Entries annotated with measured growth inhibition
test name: NCI Yeast Anticancer Drug Screen. Data for the mec2-1 strain (AID 157)
test context: S. cerevisiae mec2-1 strain, at 50.0 µM (retest, dose inferred, filed as 5.0), stronger effect = higher value
Compounds without any hit were thinned out: in the full panel of roughly 79,000, 15% have a hit.
# value in %; strip the unit string

Answered examples (4):
• CC(C)(C)[CH2][Hg][Cl] = 100
• [Cl][Pt+2][Cl].[NH-]C(c1ccccc1)C([NH-])c1ccccc1 (stereo unspecified) = -8
• Cc1ccc(S(=O)(=O)OC2CCC3C4CC=C5CC(SC(=N)N)CCC5(C)C4CCC23C)cc1 (stereo unspecified) = 28
• CCCCCCC1CC2(Cl)C(Cl)=C(Cl)C1(Cl)C2(Cl)Cl (stereo unspecified) = 100

The molecule CC[C@]1(O)CC(OC2CC(N(C)C)C(O)C(C)O2)c2c(cc3c(c2O)C(=O)c2c(O)cccc2C3=O)[C@@H]1C(=O)OC (stereo partly specified) showed growth inhibition equal to 95

The molecule COC1=C(C)C(=O)C2=C(C1=O)C(CO)N1C(C#N)C3CC4C(C1C2N1CCOC41)N3C (stereo unspecified) showed growth inhibition equal to 52

Reference for the values: PubChem BioAssay (NCI)
